Assay: yeast display, Sf9 membrane polyspecificity reagent, FACS + sequencing; frameworks hold sequencing errors
ENDPOINT_NAME: polyreactivity (PSR sort gate)

POLYMER_SEQUENCE	polyreactivity (PSR sort gate)
QVQLVESGGGLVQAGGSLRLSCAASGSIFGVNAMGLYRQAPGKERELVASISLSDDRTYYADSVKGRFTISRDNAKNTVYLQMNSLKPEDTAVYYCARRILWYWDVYPSLAEYDYWGQGTQVTVSS	low polyreactivity
PVQLVESGGGLVQAGGSLRLSCAASGSTIPSYAMGWYRQAPGKERELVASITYSDGTTRYADSVKGRFTISRDNAKNTVYLQMNSLKPEDTAVYYCNAVYYREGMDYWGQGTQVTVSS	low polyreactivity
QVQLVESGGGLVQAGGSLRLSCAASGRISSYYVMGWYRQAPGKERELVAAITGGDSTNYADSVKGRFTISRDNAKNTVYLQMNSLKPEDTAVYYCNAYYWYLDDYWGQGSQVTVSS	high polyreactivity
QVQLVESGVGLVQAGGSLSLSCAASGTFVLYAMGWYRQAPGKERELVAAISKTGRTYYADSVKGRFTISRDNAKNTVYLQMNSLKPEDTAVYYCAAQRFSKFGYWGQGTQVTVSS	high polyreactivity
QVQLVESGGGLVQAGGSLRLSCAASGRTLGGYTMGWYRQAPGKEREVVAGISFRGDSTYYADSVKGRFTLSRANAKNTVYLQMNSLKPEDTAVYYCNARGTPWRYGGDYWGQGTQVTVSS	low polyreactivity

Which polyreactivity (PSR sort gate) reading was recorded for the sequence QVQLVESGGGLVQAGGSLRLSCAASGLIFVVYTMGWYRQAPGKERELVAAITGRGGSTYADSVKGRFTISRDNAKNTVYLQMNSLKPEDNAVYYCNRADYYGYRFRVYDRLDYWGQGTQVTVSS ? low polyreactivity

Consider the sequence shown here: QVQLVESGGGLVQAGGSLRLSCAASGFIFYRYTMGWYRPAPGKERELVASITWSDGSTSYADSVNGRFTISRDNAKNTVYLQMNSLKPEDTAVYYCAADVSYQVIYEYDYSGQGTQVTVSS What is its recorded polyreactivity (PSR sort gate)? low polyreactivity

Looking for the measured polyreactivity (PSR sort gate) of QVQLVESWGGLVQAGGSLRLSCAASGSIFSPYAIGWYRQAPGKERELVAAISFRASTTYYADSVKGRFTITRDNAKNTVYLQMNSLKPEDTAVYYCAASPLYSWFWGLYDYWGQGTQVTVSS , can you help? low polyreactivity

---

Test: yeast display, Sf9 membrane polyspecificity reagent, FACS + sequencing; frameworks hold sequencing errors
ENDPOINT_NAME: polyreactivity (PSR sort gate)

POLYMER_SEQUENCE	polyreactivity (PSR sort gate)
QFQLVESGGGLFQAGGSLRLICAASGSNFGGNTMSWYRHAPGKERDLVAAISRSGTRTYYADSVKGRFTISRDTAKNTVYLQMKSLKPVATAVYYCNAKKVLPPPYDYWGQGTQVTVST	high polyreactivity
QVQLVESGGGLVQAGGSLRLSCAASGRIFRSYAMGGYRQAPGKERELVAAMTSGGSTNYADSVKGRFTISRDNAKNTVYLQMNSLKPEDTAVYYCNADRWKSGYWRYDYWGQGTQVTVSS	low polyreactivity
QVQLVESGGGLVQAGGSLRLSCAASGFTFYRNAMGWYRQAPGKEREMVAAITWSGTSTYYADSVKGRFTISRDNAKNTVYFQMNSLKPEDTAVYFCNTVGYRGRSNSRFYYWGQGTQVTVSS	high polyreactivity
QVQLVESGGGLDHAGGSLRLSCAASGRTFLGYAMGWYRQAPGKERELVAAISSSGGSTYYADSVKGLFTISRDNAKNTVYLQTNSLKPEDTAVYYCAKRKPATCASGHRFGYWGQGTQVTVSS	high polyreactivity
QVQLVESGGGLVQAGGSLRLSCAASGRIFSTYAMGWYRQAPGKERELVAAISYSGTTTYYADSVKGRFTISRDNAKNTVYLQMNSLKPEDTAVYYCAAYRYSTWSYGRDYYWGQGTQVTVSS	high polyreactivity

Need polyreactivity (PSR sort gate), item QVQLVESGGGLVQAGGSLRLICAASGRTFKRYVIGWYRQAPRKERELVATITRGGSTTYADSVKGRFTISRDNAKNTVFLQMNSLKPEDTAVYYCIADLYQVYLSDYWGQGTQVTVSS high polyreactivity

Value lookup for polyreactivity (PSR sort gate); key = QVQLVESGGGLVQAGGSLRLSCAASGFTCSTYAMGWYSQAPGKERELVAVISWNGGSTYYADSVKGRFTISRDNANNTVYLQMNSLKPEDTAVYYCDARGSFKQGYWGQGTQVTVSS high polyreactivity

// query polyreactivity (PSR sort gate) value for entry QVQLVESGGRLVQAGGSLRLSCAASGSIFGYNAMGWYRQAPGKESELVAAIDKSGGNTYYADSVKGRFTISRDNANYTVYLQMNSLKPEDTAVDYCAVRAYRHRSGYSYGYWGQGTQVTVSS high polyreactivity

Dear colleague, I am looking for the recorded polyreactivity (PSR sort gate) of the following sequence: QVHLVESGGGLVQAGGSLRLSCAASGSIFSYYGMGWYRQAPGKERELVAAITRSTGSTYYADSVKGRFTISRDYAKNTVYLQMNSLKPEDTAVYYCATEYVVLWEFDYWGQGTQVTVSS low polyreactivity
